- Tested on: A549 (PTK7 low)
- assay_name: Cellular killing on PTK7 cell lines (Cell-Titer-Glo, 7 days)
- Type: cell-based
- test_context: Anti-proliferation
attribute_measured: Emax (%)

[[record]]
molecule = "ADC1-12: antibody: Cofetuzumab; \"ADC Compounds used references\" (conjugate, chains of the INN, looked up, drug conjugate) VH: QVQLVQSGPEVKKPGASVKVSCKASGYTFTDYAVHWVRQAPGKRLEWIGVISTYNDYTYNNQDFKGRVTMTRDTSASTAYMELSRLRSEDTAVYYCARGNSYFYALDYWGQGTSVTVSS VL: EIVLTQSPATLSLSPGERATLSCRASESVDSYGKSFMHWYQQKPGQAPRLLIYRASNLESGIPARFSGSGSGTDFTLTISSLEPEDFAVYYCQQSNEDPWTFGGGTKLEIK"
units_of_measure = "%"
observed_measurement = 5.76


Each recorded value in this set is attributed to patent US20250135026A1.
